# Target desc: Leukotriene B4 receptor (Homo sapiens, UniProt Q9NPC1+Q15722)
# Procedure summary: LTB4 receptor binding from radioligand binding assay using human intact neutrophils PMN
Would you mind classing the entries by IC50? Ranges: small value (below 10 nM), mid value (10 nM to below 40 nM), large value (40 nM or more)

Completed entries (count: 5):
CN(CCc1ccccc1)C(=O)Cn1cc(C(C(=O)O)c2ccccc2)c2c(OCc3ccccc3)cccc21 (stereo not given) | mid value
C/C(=C\c1cn(CC(=O)N(C)CCc2ccccc2)c2ccc(OCc3ccccc3)cc12)C(=O)O | mid value
CN(CCc1ccccc1)C(=O)Cn1cc(/C=C/C(=O)O)c2c(OCc3ccccc3)cccc21 | mid value
CN(CCc1ccccc1)C(=O)Cc1cc(CCC(=O)O)cc2c(Oc3ccccc3)cccc12 | large value
CN(CCc1ccccc1)C(=O)Cn1cc(C(=O)c2cccc(C(=O)O)c2)c2cc(OCc3ccccc3)ccc21 | small value

Hi there! Could you help me figure out the category for "CN(CCc1ccccc1)C(=O)Cc1cc(C(=O)O)cc2c(Oc3ccccc3)cccc12" please?
mid value

Exam item: assign "Cc1c(C(=O)O)c2cc(OCc3ccccc3)ccc2n1CC(=O)N(C)CCc1ccccc1" to the correct category.
large value

Please let me know in which category the item "CN(CCc1ccccc1)C(=O)Cc1cc(/C=C/C=C/C(=O)O)cc2c(OCc3ccccc3)cccc12" belongs.
small value

Quick check: band for "CN(CCc1ccccc1)C(=O)Cn1cc(/C=C/C(=O)O)c2cc(OCc3ccccc3)ccc21"
large value

Form field 'band' for "CN(CCc1ccccc1)C(=O)Cc1cc(/C=C/C(=O)O)cc2c(-c3ccccc3)cccc12"
large value

Categorize the following entry: "CC/C(=C\c1cn(CC(=O)N(C)CCc2ccccc2)c2cccc(OCc3ccccc3)c12)C(=O)O"
mid value

Hi there! Could you help me figure out the category for "CN(CCc1ccccc1)C(=O)Cn1c(C(=O)O)cc2cc(OCc3ccccc3)ccc21" please?
mid value

Field: class (IC50) — entry: "CC/C(=C\c1cn(CC(=O)N(C)CCc2ccccc2)c2ccc(OCc3ccccc3)cc12)C(=O)O"
small value

Which class does "CN(CCc1ccccc1)C(=O)Cn1cc(C(=O)O)c2c(OCc3ccccc3)cccc21" fall in?
mid value

Categorize the following entry: "CN(CCc1ccccc1)C(=O)Cc1cc(C(=O)O)c(OCc2ccccc2)c2ccccc12"
large value

Record "C/C(=C\c1cn(CC(=O)N(C)CCc2ccccc2)c2cccc(OCc3ccccc3)c12)C(=O)O" — which class?
mid value

====

So I've got a bunch of compounds here, and I need their IC50 values.
# Procedure summary: LTB4 receptor binding from radioligand binding assay using guinea pig spleen cell membrane
Give bare numbers, in nM.

These recorded examples may help you get a feel for the data.
CC/C(=C\c1cc(CC(=O)N(C)CCc2ccccc2)c2cccc(OCc3ccccc3)c2c1)C(=O)O | 0.8
C/C(=C\c1cn(CC(=O)N(C)CCc2ccccc2)c2cccc(OCc3ccccc3)c12)C(=O)O | 2.33
CN(CCc1ccccc1)C(=O)Cn1cc(C(C(=O)O)c2ccccc2)c2c(OCc3ccccc3)cccc21 (configuration not stated) | 2.5
CN(CCc1ccccc1)C(=O)Cc1cc(C(=O)O)cc2c(-c3ccccc3)cccc12 | 0.45

Consider the following items and state reported IC50 for each.
1. CCCCCOc1cccc2c(CC(=O)N(C)CCc3ccccc3)cc(C(=O)O)cc12
2. CN(CCc1ccccc1)C(=O)Cc1cc(CCC(=O)O)cc2c(-c3ccccc3)cccc12

0.6
3.5
